# system.under.test: Amine oxidase [flavin-containing] A (Homo sapiens)
# Sequence (P21397 whole entry): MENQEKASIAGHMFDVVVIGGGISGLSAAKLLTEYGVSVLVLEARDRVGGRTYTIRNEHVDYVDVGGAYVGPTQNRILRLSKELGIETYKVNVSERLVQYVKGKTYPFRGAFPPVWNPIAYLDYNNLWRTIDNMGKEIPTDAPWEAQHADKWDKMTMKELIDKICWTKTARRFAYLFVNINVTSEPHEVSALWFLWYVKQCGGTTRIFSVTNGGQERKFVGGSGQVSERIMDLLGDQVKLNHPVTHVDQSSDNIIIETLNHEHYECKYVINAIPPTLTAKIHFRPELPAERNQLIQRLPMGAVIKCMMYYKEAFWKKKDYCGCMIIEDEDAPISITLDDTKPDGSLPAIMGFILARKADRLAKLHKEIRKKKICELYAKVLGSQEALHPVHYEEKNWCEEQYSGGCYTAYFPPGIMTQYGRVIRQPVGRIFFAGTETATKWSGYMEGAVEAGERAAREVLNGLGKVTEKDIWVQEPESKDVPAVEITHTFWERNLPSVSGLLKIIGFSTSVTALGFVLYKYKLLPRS
# procedure.summary: Inhibition of recombinant human MAO-A expressed in baculovirus infected BTI insect cells
quantity: IC50 (nM)

structure_smiles_string=C#CCN(C)CCCOc1cc(NS(C)(=O)=O)c(Cl)cc1Cl system_under_test="Amine oxidase [flavin-containing] A (Homo sapiens)" quantity=IC50 unit_info=nM result_number=64

1. C#CCN(C)CCCOc1cc(NC(=O)c2cc[nH]n2)c(Cl)cc1Cl
2. C#CCN(CCO)CCCOc1ccc(Cl)cc1Cl
Input line: Sort 1 and 2 by IC50 descending and give the first. Answer format: the label of the selected item.
Output line: 1
